System: PEG-3
Experiment: Peg3 promoter luciferase inhibitors, potency, dose response, cell-based, HeLa, CREF/GAPDH counter-screen panel (AID 624167)
Conditions: HeLa PEG-Prom luciferase reporter, overnight, CREF/GAPDH counter-screens, run 1, dose range 1, individual replicate IC50 per panel
IC50 under 20 µM gets satisfied, anything at or over 20 µM gets not satisfied.

molecule=COc1ccc(C)cc1Nc1n[n+](-c2ccccc2)c(-c2ccc(N(C)C)cc2)s1 class_label="not satisfied"
molecule=CN(c1ccc2nc3ccccc3c(=O)n2n1)C1CCCCC1 class_label=satisfied
molecule=O=C(CCl)Nc1cccc(-c2cnc3ccccc3n2)c1 class_label="not satisfied"
molecule="COc1cccc2c1C(=N)c1c(O)c3c(c(O)c1C2=O)CC(O)(C(C)=O)CC3OC1CC(N)C(O)C(C)O1 (stereo unspecified)" class_label=satisfied
molecule=CCN(CC)CCN1CCN(c2cncc(-c3ccc4ccccc4c3)n2)CC1 class_label="not satisfied"
molecule=NC(N)=N/N=C/c1cccc(Cl)c1Cl class_label=satisfied
molecule=COc1cc(SC)ccc1C(=O)Nc1nc(C)cs1 class_label=satisfied
molecule=Cc1ccc(C)c(CN2CCC(CNC(=O)Nc3ccc(F)c(Cl)c3)CC2)c1 class_label=satisfied
molecule=COc1ccc(-c2nc3c(C(=O)NCCN(C)C)cccc3c3ccccc23)cc1 class_label=satisfied
molecule=O=C(O)c1ccc(N/N=C/c2ccc3nccnc3c2)cc1 class_label=satisfied
